tested on: HS 578T breast; assay: NCI tumour cell line growth inhibition, 48 h
Measurement Label: GI50

{"Compound": "C=C1C(=O)O[C@H]2[C@H]1CC/C(COC(=O)NCc1c[nH]c3ccc(F)cc13)=C\\CC[C@@]1(C)O[C@@H]21", "Subject Of Test": "HS 578T breast", "Result Value": "3.36 µM"}
{"Compound": "N#C/C(=C\\c1cc2ccc(N3CCC3)cc2oc1=O)C(=O)N(CC(=O)O)CC(=O)O", "Subject Of Test": "HS 578T breast", "Result Value": "> 100 µM"}
{"Compound": "COc1cc(-c2ncn(/C=C\\c3nnco3)n2)cc(C(F)(F)F)c1", "Subject Of Test": "HS 578T breast", "Result Value": "0.488 µM"}
{"Compound": "C=CC[N+]1(CC)CCN=C1CCCCCCCCCCCCCCCCC (stereo not drawn)", "Subject Of Test": "HS 578T breast", "Result Value": "0.432 µM"}
{"Compound": "C[C@H]1CN(C2COC2)CCN1c1ccc(Nc2cc(-c3ccnc(N4CCn5c(cc6c5CC(C)(C)C6)C4=O)c3CO)cn(C)c2=O)nc1", "Subject Of Test": "HS 578T breast", "Result Value": "27.7 µM"}
{"Compound": "NCc1ccc(-c2nc(-c3ccc(Cl)c(O)c3)c(-c3ccncc3)[nH]2)cc1", "Subject Of Test": "HS 578T breast", "Result Value": "11.9 µM"}
{"Compound": "C=CC(=O)N[C@@H](/C=C/C(=O)OCC)Cc1ccc(-c2cc(Cl)cc(Cl)c2)cc1", "Subject Of Test": "HS 578T breast", "Result Value": "16.3 µM"}
{"Compound": "COC1=C(OC)C(=O)C(CCCCCCCCCCO)=C(C)C1=O", "Subject Of Test": "HS 578T breast", "Result Value": "18.3 µM"}
{"Compound": "CN1CCCC1c1cccnc1.O=C(O)c1ccccc1O.O=C([O-])c1ccccc1[OH2+].O=C([O-])c1ccccc1[OH2+].[Mn+2] (stereo not drawn)", "Subject Of Test": "HS 578T breast", "Result Value": "> 100 µM"}
{"Compound": "O=C1/C(=C/c2ccccc2O)N=C(c2ccccc2)N1c1cc(C(F)(F)F)ccc1Cl", "Subject Of Test": "HS 578T breast", "Result Value": "22.8 µM"}
{"Compound": "COc1ccc(-c2[nH]c3ccccc3c2/C=C(\\C#N)S(=O)(=O)c2ccccc2)cc1", "Subject Of Test": "HS 578T breast", "Result Value": "0.671 µM"}
{"Compound": "CC(C)N(Cc1ccc(F)cc1)c1ccc(CO)c(Cl)c1", "Subject Of Test": "HS 578T breast", "Result Value": "14.8 µM"}
{"Compound": "C[C@@H](NC(=O)c1ccc(F)cc1)c1ccc2c(c1)CCN2C(=O)C1CCOCC1", "Subject Of Test": "HS 578T breast", "Result Value": "> 100 µM"}
{"Compound": "CC1CCC2C(CN(CC3=C(C(F)(F)F)OC4OC5(C)CCC6C(C)CCC3C46OO5)CC3=C(C(F)(F)F)OC4OC5(C)CCC6C(C)CCC3C46OO5)=C(C(F)(F)F)OC3OC4(C)CCC1C32OO4 (stereo not drawn)", "Subject Of Test": "HS 578T breast", "Result Value": "17.9 µM"}
{"Compound": "Cc1ccc(Cl)cc1-n1c(C)nc2c(cnn2-c2ccnc3c(C(F)(F)F)cccc23)c1=O", "Subject Of Test": "HS 578T breast", "Result Value": "> 100 µM"}
{"Compound": "COc1cc(C(=O)/C=C/c2c(C(F)(F)F)nc3ccccn23)cc(OC)c1OC", "Subject Of Test": "HS 578T breast", "Result Value": "3.27 µM"}
{"Compound": "COCCOCCOCCOCCOC(=O)OC[n+]1ccc(NC(=NCCCCCCOc2ccc(Cl)cc2)NC#N)cc1", "Subject Of Test": "HS 578T breast", "Result Value": "1.11 µM"}
{"Compound": "c1ccc(C2CCCCC2)c(OCCCCCN2CCNCC2)c1", "Subject Of Test": "HS 578T breast", "Result Value": "3.61 µM"}

----------
system: NCI-H23 lung; assay: NCI tumour cell line growth inhibition, 48 h
Measured TGI by item

{"Molecule": "COc1ccc(C2CC(c3ccc(N(C)C)cc3)=NN2c2ccc(S(N)(=O)=O)cc2)cc1 (centres undefined)", "TGI": "> 100 µM"}
{"Molecule": "CCC(=O)C(CCN1CCC(N2C(=O)C(CCC#N)c3ccccc32)CC1)(c1ccccc1)c1ccccc1 (centres undefined)", "TGI": "48.8 µM"}
{"Molecule": "COc1ccc(NC(=O)C(=O)Cc2nc3ccc(C(=O)c4ccccc4)cc3[nH]c2=O)c([N+](=O)[O-])c1", "TGI": "65.4 µM"}
{"Molecule": "COc1cc(C(=O)/C=C/c2c(C(F)(F)F)nc3ccccn23)cc(OC)c1OC", "TGI": "4.01 µM"}
{"Molecule": "C=CC(=O)N[C@@H](/C=C/C(=O)OCC)Cc1ccc(-c2cc(Cl)cc(Cl)c2)cc1", "TGI": "> 100 µM"}
{"Molecule": "Cc1ccc(Cl)cc1-n1c(C)nc2c(cnn2-c2ccnc3c(C(F)(F)F)cccc23)c1=O", "TGI": "> 100 µM"}
{"Molecule": "CCOC(=O)C(CCCNC(=O)OC(C)(C)C)N(Cc1ccc(OC)cc1OC)C(=O)CC(=O)CP(=O)(OCC)OCC (centres undefined)", "TGI": "> 100 µM"}
{"Molecule": "C[C@H]1C(=O)c2c(cc(O)c(C3OC(CO)C(O)C(O)C3O)c2O)OC1c1ccc(O)c(O)c1 (some centres undefined)", "TGI": "> 100 µM"}
{"Molecule": "c1ccc2c(-c3csc(-c4c[nH]c5ccccc45)n3)c[nH]c2c1", "TGI": "> 100 µM"}

----------
Measured TGI by item
system: HS 578T breast; experiment: NCI tumour cell line growth inhibition, 48 h

{"Compound": "c1cc(CN2CCNCCNCCNCC2)cc(CN2CCNCCNCCNCC2)c1", "Operator Symbol": ">", "TGI / µM": 100}
{"Compound": "CN(C)CCCn1c2c(c3cc4c(cc3c1=O)OCO4)C(=O)c1ccccc1-2", "Operator Symbol": "=", "TGI / µM": 43.4}
{"Compound": "Cc1ccc(/C=C2\\Cc3cc(C)c(C)cc3C2=O)c(C(=O)O)c1", "Operator Symbol": ">", "TGI / µM": 100}
{"Compound": "COC(=O)[C@@]1(NC(=O)C(CC(=O)OC(C)(C)C)NC(=O)OC(C)(C)C)C[C@H]1C (some centres undefined)", "Operator Symbol": ">", "TGI / µM": 100}
{"Compound": "COc1ccc(C2CC(c3ccc(N(C)C)cc3)=NN2c2ccc(S(N)(=O)=O)cc2)cc1 (centres undefined)", "Operator Symbol": "=", "TGI / µM": 42.6}
{"Compound": "C=CCN(CC=C)C(=O)[C@H](CC)[C@@H]1CC[C@@H](C)[C@@H]([C@H](C)[C@@H](O)[C@@H](C)C(=O)[C@H](CC)C2O[C@]3(C=C[C@@H](O)[C@]4(CC[C@@](C)([C@H]5CC[C@](O)(CC)[C@H](C)O5)O4)O3)[C@H](C)C[C@@H]2C)O1 (some centres undefined)", "Operator Symbol": "=", "TGI / µM": 6.27}
{"Compound": "CC1SC(c2ccc(Cl)cc2)N(CCc2cccs2)C1=O (centres undefined)", "Operator Symbol": "=", "TGI / µM": 4.1}
{"Compound": "O=C(O)Cc1cccc2c(=O)c3cccc([N+](=O)[O-])c3[nH]c12", "Operator Symbol": ">", "TGI / µM": 100}
{"Compound": "O=C1C(Sc2ccc3ccccc3c2)=C(Sc2ccc3ccccc3c2)C(=O)c2ccccc21", "Operator Symbol": "=", "TGI / µM": 62.3}
{"Compound": "c1ccc(CN2COc3c(ccc4c5c(ccc34)CN(Cc3ccccc3)CO5)C2)cc1", "Operator Symbol": ">", "TGI / µM": 100}
{"Compound": "Cc1ccc(Cl)cc1-n1c(C)nc2c(cnn2-c2ccnc3c(C(F)(F)F)cccc23)c1=O", "Operator Symbol": ">", "TGI / µM": 100}
{"Compound": "O=[N+]([O-])c1cc(Cc2cc([N+](=O)[O-])c3cccnc3c2O)c(O)c2ncccc12", "Operator Symbol": "=", "TGI / µM": 52.1}
{"Compound": "CCOC(=O)/C=C\\C(C#N)(C#N)N=Cc1ccsc1", "Operator Symbol": "=", "TGI / µM": 48.4}
{"Compound": "CC1CC(N2CCOCC2)=Nc2ccccc2N1Cc1ccccc1 (centres undefined)", "Operator Symbol": ">", "TGI / µM": 100}
{"Compound": "O=S(=O)(O)c1ccc2cc(N=Nc3c(O)ccc4ccccc34)ccc2c1", "Operator Symbol": ">", "TGI / µM": 100}
{"Compound": "Cc1nc(N(C(C)C)C(C)C)c(C(C)C)o1", "Operator Symbol": ">", "TGI / µM": 100}
{"Compound": "COc1cccc(C(NC2=NCCC=N2)c2cc3c(cc2O)OCO3)c1O (centres undefined)", "Operator Symbol": "=", "TGI / µM": 79.7}
{"Compound": "C=CC(=O)N[C@@H](/C=C/C(=O)OCC)Cc1ccc(-c2cc(Cl)cc(Cl)c2)cc1", "Operator Symbol": "=", "TGI / µM": 78.4}
{"Compound": "C=C1C(=O)O[C@H]2[C@H]1CC/C(COC(=O)NCc1c[nH]c3ccc(F)cc13)=C\\CC[C@@]1(C)O[C@@H]21", "Operator Symbol": "=", "TGI / µM": 26.6}
